B1: HDV Ribozyme (parent)
chain: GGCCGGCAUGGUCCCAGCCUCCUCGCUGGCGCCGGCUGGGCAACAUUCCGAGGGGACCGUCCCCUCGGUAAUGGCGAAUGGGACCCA

Variants of: B1
assay_explanation: self-cleavage, relative activity (ratio to wild type); higher = more cleavage; co-transcriptional
Listed below: self-cleavage values for each entry.
metric_name: self-cleavage

# macromolecule_sequence, value_observed
records = [
    ("GGCCGGCAUGGUCCCAGCCUCCUCGCUGGCGCCGGCUGGGCAACAUUCCGCGGGGACCGUCCCCUCAGUAAUGGCGAAUGGGACCCA [A51C G67A]", 0.77),
    ("GGCCGGCAUGGUCCCAGCCUACUCGCUGGCGCCGGCUGGGCAACAUUCCGAGGGGACCGGCCCCUCGGUAAUGGCGAAUGGGACCCA [C21A U60G]", 0.138),
    ("GGCCGGCAAGGUCCCAGCCUCCUCGCUGGCGCCGGCUGGGCAACAUUCCGAGGGGACCGUCCCCUCGGUAACGGCGAAUGGGACCCA [U9A U72C]", 0.688),
    ("GGCCGGCAUGGUCCCAGCCUCCUCUCUGGCGCCGGCUGGGCAACAUUCCGAGGGGACCGUCCCCUCGGUAAUGGCGAAUGGGACCCG [G25U A87G]", 0.163),
    ("GGUCGGCAUGGUCCCAGCCUCCUCGCUGGCGCCGGCUGGGCAACAUUCCGAGGGGACCGUCCCCUCGGUAAUGGCGAAUGGGACCGA [C3U C86G]", 0.848),
    ("GGCCGGCAUGGUCCCAGCCUCCGCGCUGGCGCCGGCUGGGCAACAUUCCGAGGGGGCCGUCCCCUCGGUAAUGGCGAAUGGGACCCA [U23G A56G]", 0.787),
    ("GGCCGGCAUGGUCCCAGACUCCUCGCUGGCGCCGGCUGGGCAACAUUCUGAGGGGACCGUCCCCUCGGUAAUGGCGAAUGGGACCCA [C18A C49U]", 0.133),
    ("GGCCGGUAUGGUCCCAGUCUCCUCGCUGGCGCCGGCUGGGCAACAUUCCGAGGGGACCGUCCCCUCGGUAAUGGCGAAUGGGACCCA [C7U C18U]", 0.277),
    ("GGCCGGCAUGGUCCCAGCCUCCUCGCUGACGCCGGCUGGGCAACAUUCCGAGGGGACCGUCCCCUCGGUAAUGGCGAAUGUGACCCA [G29A G81U]", 0.125),
    ("GGCCGGCAUGCUCCCAGCCUCCUCGCUGGCGCCGGCUGGGCAACAUUCCGAGGGGACCGUCCCCUCGGUAAUGUCGAAUGGGACCCA [G11C G74U]", 0.0963),
    ("GGCCGGCAUGGUCCCAGCCUCCUCGCAGGCGCCGGCUGGGCAACAUUCCGAGGGGACCGUCCCCUCGGUAAUGGCGUAUGGGACCCA [U27A A77U]", 0.332),
]
